- Tested on: SK-ES1 (Ewing sarcoma, ATCC HTB-86)
- measurement description: Cytotoxicity, MTT assay, SK-ES1
- Format: cell-based, human
- details: Homo sapiens; SK-ES1, long-term exposure (96 h), MTT assay; errors as 95% confidence intervals
pIC50: −log10 of the molar value.
property: pIC50

Cn1c(CCCC(=O)OCCN2CCOCC2)nc2cc(N(CCCl)CCCl)ccc21 [bendamustine mofetil ester] ... 6.05
